- TEST_TARGET: Human IBAT (Homo sapiens, UniProt Q12908)
- Construct: kept under Puromycin selection
- Sequence (Q12908 whole entry): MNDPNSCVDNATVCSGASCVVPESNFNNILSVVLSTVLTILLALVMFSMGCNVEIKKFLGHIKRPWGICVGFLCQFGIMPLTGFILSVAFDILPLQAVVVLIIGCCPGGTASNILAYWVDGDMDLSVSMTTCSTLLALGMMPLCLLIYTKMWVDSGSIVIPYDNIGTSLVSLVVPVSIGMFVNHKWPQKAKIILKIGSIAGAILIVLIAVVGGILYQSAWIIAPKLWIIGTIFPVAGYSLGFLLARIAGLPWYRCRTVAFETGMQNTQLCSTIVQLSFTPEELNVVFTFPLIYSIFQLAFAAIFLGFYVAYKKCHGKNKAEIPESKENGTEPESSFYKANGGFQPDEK
- PROTOCOL_TEXT: IBAT (h/m) assay, human IBAT-overexpressing cells, 3H-taurocholic acid uptake
- RECORDED_CONDITIONS: 0.25 μM 3H-taurocholic acid and 5 μM cold taurocholic acid, 20 minutes, highest test concentration 10 μM, read-out: hIBAT IC50
pIC50: −log10 of the molar value.
Rule: y for pIC50 not less than 6, n for anything less.

{"COMPOUND": "CCCCC1CN(c2ccccc2)c2cc(SC)c(OCC(C)(OC)C(=O)O)cc2S(=O)(=O)N1C (single isomer, unassigned) [Example 23]", "CAT": "y"}
{"COMPOUND": "CCCCC1CN(c2ccccc2)c2cc(SCC)c(OCC3(C(=O)O)CC3)cc2S(=O)(=O)N1C (single isomer, unassigned) [8, enantiomer 2]", "CAT": "n"}
{"COMPOUND": "CCCCC1CN(c2ccccc2)c2cc(SCC)c(OCC3(C(=O)O)CC3)cc2S(=O)(=O)N1C (stereo not shown) [Example 7]", "CAT": "y"}
{"COMPOUND": "CCCCC1CN(c2ccccc2)c2cc(SCC)c(OCC(C)(C)C(=O)O)cc2S(=O)(=O)N1C (stereo not shown) [Example 5]", "CAT": "y"}
{"COMPOUND": "CCCCC1CN(c2ccc(F)cc2)c2cc(SCC)c(OCC(O)C(=O)O)cc2S(=O)(=O)N1C (stereo not shown)", "CAT": "y"}
{"COMPOUND": "CCCCC1CN(c2ccccc2)c2cc(SC)c(OCC(C)(OC)C(=O)O)cc2S(=O)(=O)N1C (stereo not shown) [Example 22]", "CAT": "y"}
{"COMPOUND": "CCCCC1CN(c2ccccc2)c2cc(SC)c(OCC(OC)C(=O)O)cc2S(=O)(=O)N1C (single isomer, unassigned) [31, stereoisomer 2]", "CAT": "n"}
{"COMPOUND": "CCCCC1CN(c2ccc(F)cc2)c2cc(SC)c(OCC(C)(C)C(=O)O)cc2S(=O)(=O)N1C (stereo not shown)", "CAT": "y"}
{"COMPOUND": "CCCCC1CN(c2ccc(F)cc2)c2cc(SC)c(OCC3(C(=O)O)CC3)cc2S(=O)(=O)N1 (stereo not shown)", "CAT": "y"}
{"COMPOUND": "CCCCC1CN(c2ccccc2)c2cc(SC)c(OCC(F)(F)C(=O)O)cc2S(=O)(=O)N1C (stereo not shown) [Example 20]", "CAT": "y"}
{"COMPOUND": "CCCCC1CN(c2ccccc2)c2cc(SCC)c(OCC3(C(=O)O)CC3)cc2S(=O)(=O)N1C (single isomer, unassigned) [8, enantiomer 1]", "CAT": "y"}
{"COMPOUND": "CCCCC1CN(c2ccccc2)c2cc(SC)c(OCC3(C(=O)O)CC3)cc2S(=O)(=O)N1C (stereo not shown) [Example 3]", "CAT": "y"}
{"COMPOUND": "CCCCC1CN(c2ccc(F)cc2)c2cc(SC)c(OCC(C)(C)C(=O)O)cc2S(=O)(=O)C1 (stereo not shown)", "CAT": "n"}
{"COMPOUND": "CCCCC1CN(c2ccc(F)cc2)c2cc(SCC)c(OCC3(C(=O)O)CC3)cc2S(=O)(=O)N1 (stereo not shown) [Example 18]", "CAT": "y"}
{"COMPOUND": "CCCCC1CN(c2ccccc2)c2cc(SC)c(OCC3(C(=O)O)CC3)cc2S(=O)(=O)N1C (single isomer, unassigned) [4, enantiomer 2]", "CAT": "y"}
{"COMPOUND": "CCCCC1CN(c2ccccc2)c2cc(SC)c(OCC(C)(OC)C(=O)O)cc2S(=O)(=O)N1C (single isomer, unassigned) [24, diastereomer 2]", "CAT": "y"}
{"COMPOUND": "CCCCC1CN(c2ccccc2)c2cc(SCC)c(OCC3(C(=O)O)CC3)cc2S(=O)(=O)N1 (stereo not shown)", "CAT": "n"}
{"COMPOUND": "CCCCC1CN(c2ccccc2)c2cc(SC)c(OCC(OC)C(=O)O)cc2S(=O)(=O)N1C (single isomer, unassigned) [32, diastereomer 1]", "CAT": "n"}
{"COMPOUND": "CCCCC1CN(c2ccc(F)cc2)c2cc(SCC)c(OCC3(C(=O)O)CC3)cc2S(=O)(=O)N1 (single isomer, unassigned) [19, enantiomer 2]", "CAT": "n"}
{"COMPOUND": "CCCCC1CN(c2ccc(F)cc2)c2cc(SC)c(OCC3(C(=O)O)CC3)cc2S(=O)(=O)N1C (stereo not shown)", "CAT": "y"}
{"COMPOUND": "CCCCC1CN(c2ccccc2)c2cc(SC)c(OCC3(C(=O)O)CC3)cc2S(=O)(=O)N1C (single isomer, unassigned) [4, enantiomer 1]", "CAT": "n"}
{"COMPOUND": "CCCCC1CN(c2ccccc2)c2cc(SCC)c(OCC(C)(C)C(=O)O)cc2S(=O)(=O)N1C (single isomer, unassigned) [6, enantiomer 2]", "CAT": "y"}
{"COMPOUND": "CCCCC1CN(c2ccccc2)c2cc(SC)c(OCC(C)(C)C(=O)O)cc2S(=O)(=O)N1C (single isomer, unassigned) [2, enantiomer 1]", "CAT": "n"}
{"COMPOUND": "CCCCC1CN(c2ccccc2)c2cc(SC)c(OCC(OC)C(=O)O)cc2S(=O)(=O)N1C (single isomer, unassigned) [32, diastereomer 2]", "CAT": "n"}
{"COMPOUND": "CCCCC1CN(c2ccccc2)c2cc(SC)c(OCC(F)(F)C(=O)O)cc2S(=O)(=O)N1C (single isomer, unassigned) [21, enantiomer 1]", "CAT": "n"}
